assay: Tested for inhibition of Uridine Phosphorylase (UrdPase) in murine liver
REPORTED PROPERTY: IC50 (nM)
Quick note: give the figure in nM, leave out the unit.

Challenge: What value of IC50 has been recorded for this entry: O=c1[nH]c(=O)n(COCCO)cc1Cc1cccc(Oc2cccc(F)c2)c1
Response given: 14

Challenge: Then what about the molecule O=c1[nH]c(=O)n(COCCO)cc1Cc1cccc(Oc2cccc(C(F)(F)F)c2)c1 ?
Response given: 32

Challenge: Next up: O=c1[nH]c(=O)n(COCCO)cc1Cc1cccc(Oc2ccc(F)cc2)c1
Response given: 98

Challenge: Another molecule to check: O=c1[nH]c(=O)n(COCCO)cc1Cc1cccc(Oc2ccccc2)c1
Response given: 14

Challenge: Moving on to N#Cc1cccc(Oc2cccc(Cc3cn(COCCO)c(=O)[nH]c3=O)c2)c1
Response given: 5.9

---

Record form. Attribute: pIC50. Fill in for each entry.
assay: Tested for inhibition of Uridine Phosphorylase (UrdPase) in murine liver
# log scale: pIC50 equals minus log10 of the concentration in mol/L

Challenge: Give its pIC50 value. Item: O=c1[nH]c(=O)n(COC(CO)CO)cc1Cc1cccc(Oc2ccccc2)c1
Response given: 8.00

Challenge: Please answer likewise for Cc1cccc(Oc2cccc(Cc3cn(COCCO)c(=O)[nH]c3=O)c2)c1
Response given: 7.89

Challenge: O=c1[nH]c(=O)n(COC(CO)CO)cc1Cc1cccc(Oc2cccc(F)c2)c1 , same question.
Response given: 8.09

Challenge: // same read-out, input: O=c1[nH]c(=O)n(COCCO)cc1Cc1cccc(Oc2cccc(Cl)c2)c1
Response given: 7.82

The values you see were collected from ChEMBL document CHEMBL1129991.
